Biological target: T1, 298B
T1 construct: also called LHD298 B; LHD298 chainB
T1 chain: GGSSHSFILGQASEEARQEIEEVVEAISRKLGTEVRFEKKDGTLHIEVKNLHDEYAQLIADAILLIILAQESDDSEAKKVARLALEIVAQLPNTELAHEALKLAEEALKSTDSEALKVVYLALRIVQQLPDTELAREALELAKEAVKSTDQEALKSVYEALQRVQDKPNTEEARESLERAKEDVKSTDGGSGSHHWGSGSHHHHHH
Assay: BLI, global kinetic fit, 1:1 model
MEASURED_PROPERTY: Kd (nM)
Give the value in nM but do not write nM after it.

Value lookup for Kd; key = LHD298 chainA (designed binder, also called LHD298A) GRQEKVLKSIEETVRKMGVTMETHRSGNTVKVVIKGLHESQQEQLHKDVEETVQKEGVFVLVSHHGDTVTIQVYE
3.5
